System: glutamate NMDA receptors (NMDARs)
ASSAY PROTOCOL: NMDA-induced currents in dorsal horn (lamina II) neurons of spinal cord slices
Type: cell-based, mice
MEASUREMENT PARAMETERS: NMDA 50 μM; TNF-α 10 ng/ml; PD98059 1 μM, U0126 1 μM, capsazepine 10 μM
MEASUREMENT KIND: TNF-α-induced potentiation of NMDA currents (NMDAR activation)

> print(dat)
                                   compound                      tested.system  assay.value
1  N#CC(=C(/N)Sc1ccccc1N)/C(C#N)=C(\N)Sc1ccccc1N [U0126, reference compound]  glutamate NMDA receptors (NMDARs)      blocked
2  COc1cccc(-c2cc(=O)c3ccccc3o2)c1N [PD98059, reference compound]  glutamate NMDA receptors (NMDARs)      blocked
